- Target Or System: delta opioid receptor (rat)
- Test Protocol: Log(tau/KA) transduction coefficient (log10 (M-1)); higher = more effective agonism
- Run Conditions: receptor: rat DOR; Gαi2
Endpoint Label: Log(tau/KA) transduction coefficient (log10)
Just the number.

Examples from the recorded data:
CN1CC[C@]23c4c5ccc(O)c4O[C@H]2[C@@H](O)C=C[C@H]3[C@H]1C5	5.31
CSCC[C@H](NC(=O)[C@H](Cc1ccccc1)NC(=O)CNC(=O)CNC(=O)[C@@H](N)Cc1ccc(O)cc1)C(=O)O	6.55
CN(C)C(=O)C(CCN1CCC(O)(c2ccc(Cl)cc2)CC1)(c1ccccc1)c1ccccc1 [Loperamide]	5.24
COc1ccc2c3c1O[C@H]1C(=O)CC[C@@]4(O)[C@@H](C2)N(C)CC[C@]314	4.41

Consider the additional compound presented here.
Log(tau/KA) transduction coefficient (log10) measured on "CO[C@@]12CC[C@@]3(C[C@@H]1[C@](C)(O)C(C)(C)C)[C@H]1Cc4ccc(O)c5c4[C@@]3(CCN1CC1CC1)[C@H]2O5" = 6.14

====

Catalogue of Log(tau/KA) transduction coefficient (log10) values
- Target Or System: delta opioid receptor (rat)
- Test Protocol: Log(tau/KA) transduction coefficient (log10 (M-1)); higher = more effective agonism
- Run Conditions: receptor: rat DOR; Gαi1
Just the number.

Examples from the recorded data:
CSCC[C@H](NC(=O)[C@H](Cc1ccccc1)NC(=O)CNC(=O)CNC(=O)[C@@H](N)Cc1ccc(O)cc1)C(=O)O	5.86
CN1CC[C@]23c4c5ccc(O)c4O[C@H]2[C@@H](O)C=C[C@H]3[C@H]1C5	4.41
CO[C@@]12CC[C@@]3(C[C@@H]1[C@](C)(O)C(C)(C)C)[C@H]1Cc4ccc(O)c5c4[C@@]3(CCN1CC1CC1)[C@H]2O5	6.16

Log(tau/KA) transduction coefficient (log10) measured on CN(C)C(=O)C(CCN1CCC(O)(c2ccc(Cl)cc2)CC1)(c1ccccc1)c1ccccc1 [Loperamide] = 4.78

Log(tau/KA) transduction coefficient (log10) measured on "COc1ccc2c3c1O[C@H]1C(=O)CC[C@@]4(O)[C@@H](C2)N(C)CC[C@]314" = 2.98

====

Catalogue of Log(tau/KA) transduction coefficient (log10) values
- Target Or System: mu opioid receptor (rat) (UniProt P33535)
- Sequence (P33535 whole entry): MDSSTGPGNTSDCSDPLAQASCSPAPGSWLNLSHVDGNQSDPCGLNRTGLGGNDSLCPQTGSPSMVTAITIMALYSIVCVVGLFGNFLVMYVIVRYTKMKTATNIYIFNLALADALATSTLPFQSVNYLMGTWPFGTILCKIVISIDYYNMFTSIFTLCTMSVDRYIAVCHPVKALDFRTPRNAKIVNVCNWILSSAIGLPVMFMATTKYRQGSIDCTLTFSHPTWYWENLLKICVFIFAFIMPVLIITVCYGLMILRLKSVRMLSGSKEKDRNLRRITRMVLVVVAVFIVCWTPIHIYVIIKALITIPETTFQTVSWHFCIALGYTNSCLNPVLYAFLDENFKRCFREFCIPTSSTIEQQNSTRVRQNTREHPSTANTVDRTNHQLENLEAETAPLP
- Test Protocol: Log(tau/KA) transduction coefficient (log10 (M-1)); higher = more effective agonism
- Run Conditions: receptor: rat MOR; βarrestine 2-GRK5
Just the number.

Examples from the recorded data:
CN1CC[C@]23c4c5ccc(O)c4O[C@H]2[C@@H](O)C=C[C@H]3[C@H]1C5	6.37
COc1ccc2c3c1O[C@H]1C(=O)CC[C@@]4(O)[C@@H](C2)N(C)CC[C@]314	5.06
CO[C@@]12CC[C@@]3(C[C@@H]1[C@](C)(O)C(C)(C)C)[C@H]1Cc4ccc(O)c5c4[C@@]3(CCN1CC1CC1)[C@H]2O5	5.36
CN(C)C(=O)C(CCN1CCC(O)(c2ccc(Cl)cc2)CC1)(c1ccccc1)c1ccccc1 [Loperamide]	6.39
CSCC[C@H](NC(=O)[C@H](Cc1ccccc1)NC(=O)CNC(=O)CNC(=O)[C@@H](N)Cc1ccc(O)cc1)C(=O)O	6.35

Consider the additional compound presented here.
Log(tau/KA) transduction coefficient (log10) measured on "C[C@@H](NC(=O)[C@@H](N)Cc1ccc(O)cc1)C(=O)NCC(=O)N(C)[C@@H](Cc1ccccc1)C(=O)NCCO" = 6.26

====

Catalogue of Log(tau/KA) transduction coefficient (log10) values
- Target Or System: delta opioid receptor (human) (UniProt P41143)
- Sequence (P41143 whole entry): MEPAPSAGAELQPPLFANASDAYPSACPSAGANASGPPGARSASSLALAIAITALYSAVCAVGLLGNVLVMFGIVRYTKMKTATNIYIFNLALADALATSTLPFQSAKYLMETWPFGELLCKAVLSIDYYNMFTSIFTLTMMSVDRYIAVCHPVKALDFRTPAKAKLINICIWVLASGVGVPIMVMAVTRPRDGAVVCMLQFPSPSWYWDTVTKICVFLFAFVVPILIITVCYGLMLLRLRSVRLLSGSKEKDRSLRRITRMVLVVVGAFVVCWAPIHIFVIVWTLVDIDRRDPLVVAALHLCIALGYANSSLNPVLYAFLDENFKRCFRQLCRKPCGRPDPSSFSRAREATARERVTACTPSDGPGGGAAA
- Test Protocol: Log(tau/KA) transduction coefficient (log10 (M-1)); higher = more effective agonism
- Run Conditions: receptor: human DOR; Gαi2
Just the number.

Examples from the recorded data:
CN(C)C(=O)C(CCN1CCC(O)(c2ccc(Cl)cc2)CC1)(c1ccccc1)c1ccccc1 [Loperamide]	5.79
COc1ccc2c3c1O[C@H]1C(=O)CC[C@@]4(O)[C@@H](C2)N(C)CC[C@]314	5.21
CO[C@@]12CC[C@@]3(C[C@@H]1[C@](C)(O)C(C)(C)C)[C@H]1Cc4ccc(O)c5c4[C@@]3(CCN1CC1CC1)[C@H]2O5	6.73
CN1CC[C@]23c4c5ccc(O)c4O[C@H]2[C@@H](O)C=C[C@H]3[C@H]1C5	5.75

Consider the additional compound presented here.
Log(tau/KA) transduction coefficient (log10) measured on "CSCC[C@H](NC(=O)[C@H](Cc1ccccc1)NC(=O)CNC(=O)CNC(=O)[C@@H](N)Cc1ccc(O)cc1)C(=O)O" = 7.02

====

- Target Or System: delta opioid receptor (rat) (UniProt P33533)
- Sequence (P33533 whole entry): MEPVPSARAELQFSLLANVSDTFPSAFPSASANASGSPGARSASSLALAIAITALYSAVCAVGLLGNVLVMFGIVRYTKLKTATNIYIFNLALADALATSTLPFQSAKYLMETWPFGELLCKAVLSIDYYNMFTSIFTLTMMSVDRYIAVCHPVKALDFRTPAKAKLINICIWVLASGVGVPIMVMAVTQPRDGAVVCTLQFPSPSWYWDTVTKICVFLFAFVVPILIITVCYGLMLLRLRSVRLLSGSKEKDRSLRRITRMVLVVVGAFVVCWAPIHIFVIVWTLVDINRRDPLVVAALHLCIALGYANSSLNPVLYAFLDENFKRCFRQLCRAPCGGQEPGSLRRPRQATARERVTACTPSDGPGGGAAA
- Test Protocol: Log(tau/KA) transduction coefficient (log10 (M-1)); higher = more effective agonism
- Run Conditions: receptor: rat DOR; Gαo
Classify as follows. Reported Log(tau/KA) transduction coefficient (log10) greater than or equal to 5: True. Reported Log(tau/KA) transduction coefficient (log10) below: False.

CO[C@@]12CC[C@@]3(C[C@@H]1[C@](C)(O)C(C)(C)C)[C@H]1Cc4ccc(O)c5c4[C@@]3(CCN1CC1CC1)[C@H]2O5	True
CN(C)C(=O)C(CCN1CCC(O)(c2ccc(Cl)cc2)CC1)(c1ccccc1)c1ccccc1 [Loperamide]	True
CSCC[C@H](NC(=O)[C@H](Cc1ccccc1)NC(=O)CNC(=O)CNC(=O)[C@@H](N)Cc1ccc(O)cc1)C(=O)O	True

We now examine a further compound.
# bool: Log(tau/KA) transduction coefficient (log10) of "COc1ccc2c3c1O[C@H]1C(=O)CC[C@@]4(O)[C@@H](C2)N(C)CC[C@]314" >= 5
False

====

Catalogue of Log(tau/KA) transduction coefficient (log10) values
- Target Or System: delta opioid receptor (human) (UniProt P41143)
- Test Protocol: Log(tau/KA) transduction coefficient (log10 (M-1)); higher = more effective agonism
- Run Conditions: receptor: human DOR; Gαo

CSCC[C@H](NC(=O)[C@H](Cc1ccccc1)NC(=O)CNC(=O)CNC(=O)[C@@H](N)Cc1ccc(O)cc1)C(=O)O	6.59

Log(tau/KA) transduction coefficient (log10) measured on CN(C)C(=O)C(CCN1CCC(O)(c2ccc(Cl)cc2)CC1)(c1ccccc1)c1ccccc1 [Loperamide] = 5.28

Log(tau/KA) transduction coefficient (log10) measured on "CN1CC[C@]23c4c5ccc(O)c4O[C@H]2[C@@H](O)C=C[C@H]3[C@H]1C5" = 5.24

Log(tau/KA) transduction coefficient (log10) measured on "CO[C@@]12CC[C@@]3(C[C@@H]1[C@](C)(O)C(C)(C)C)[C@H]1Cc4ccc(O)c5c4[C@@]3(CCN1CC1CC1)[C@H]2O5" = 6.61

Log(tau/KA) transduction coefficient (log10) measured on "COc1ccc2c3c1O[C@H]1C(=O)CC[C@@]4(O)[C@@H](C2)N(C)CC[C@]314" = 4.26

====

Catalogue of Log(tau/KA) transduction coefficient (log10) values
- Target Or System: delta opioid receptor (rat)
- Test Protocol: Log(tau/KA) transduction coefficient (log10 (M-1)); higher = more effective agonism
- Run Conditions: receptor: rat DOR; cAMP
Just the number.

CO[C@@]12CC[C@@]3(C[C@@H]1[C@](C)(O)C(C)(C)C)[C@H]1Cc4ccc(O)c5c4[C@@]3(CCN1CC1CC1)[C@H]2O5	7.87

Log(tau/KA) transduction coefficient (log10) measured on "COc1ccc2c3c1O[C@H]1C(=O)CC[C@@]4(O)[C@@H](C2)N(C)CC[C@]314" = 6.08

Log(tau/KA) transduction coefficient (log10) measured on "CN1CC[C@]23c4c5ccc(O)c4O[C@H]2[C@@H](O)C=C[C@H]3[C@H]1C5" = 6.68

Log(tau/KA) transduction coefficient (log10) measured on CN(C)C(=O)C(CCN1CCC(O)(c2ccc(Cl)cc2)CC1)(c1ccccc1)c1ccccc1 [Loperamide] = 5.9

Log(tau/KA) transduction coefficient (log10) measured on "CSCC[C@H](NC(=O)[C@H](Cc1ccccc1)NC(=O)CNC(=O)CNC(=O)[C@@H](N)Cc1ccc(O)cc1)C(=O)O" = 9.4

====

- Target Or System: mu opioid receptor (rat) (UniProt P33535)
- Test Protocol: Log(tau/KA) transduction coefficient (log10 (M-1)); higher = more effective agonism
- Run Conditions: receptor: rat MOR; βarrestine 2
Endpoint Label: Log(tau/KA) transduction coefficient (log10)

C[C@@H](NC(=O)[C@@H](N)Cc1ccc(O)cc1)C(=O)NCC(=O)N(C)[C@@H](Cc1ccccc1)C(=O)NCCO	5.51
CO[C@@]12CC[C@@]3(C[C@@H]1[C@](C)(O)C(C)(C)C)[C@H]1Cc4ccc(O)c5c4[C@@]3(CCN1CC1CC1)[C@H]2O5	5.04
CN1CC[C@]23c4c5ccc(O)c4O[C@H]2[C@@H](O)C=C[C@H]3[C@H]1C5	5.69
CN(C)C(=O)C(CCN1CCC(O)(c2ccc(Cl)cc2)CC1)(c1ccccc1)c1ccccc1 [Loperamide]	5.68

Log(tau/KA) transduction coefficient (log10) measured on "CSCC[C@H](NC(=O)[C@H](Cc1ccccc1)NC(=O)CNC(=O)CNC(=O)[C@@H](N)Cc1ccc(O)cc1)C(=O)O" = 5.65
